- system: CCR1 (Homo sapiens, UniProt P32246)
- Sequence (P32246 whole entry): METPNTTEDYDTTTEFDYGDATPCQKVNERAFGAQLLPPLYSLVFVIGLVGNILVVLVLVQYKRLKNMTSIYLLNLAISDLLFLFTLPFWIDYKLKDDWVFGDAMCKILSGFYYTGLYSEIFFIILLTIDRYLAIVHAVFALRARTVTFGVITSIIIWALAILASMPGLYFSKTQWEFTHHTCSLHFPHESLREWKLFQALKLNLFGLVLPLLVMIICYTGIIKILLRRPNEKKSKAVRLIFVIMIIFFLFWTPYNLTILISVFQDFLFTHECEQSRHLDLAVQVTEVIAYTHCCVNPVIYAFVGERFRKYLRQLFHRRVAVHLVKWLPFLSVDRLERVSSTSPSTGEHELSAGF
- protocol_summary: calcium flux in CCR1 transfected cells, Method A (Fluo-4 NW, FLIPR TETRA)
- Assay type: cell-based
- measurement_conditions: cells stably expressing recombinant CCR1 and G-alpha-16, MIP-1 alpha at EC80
pIC50: −log10 of the molar value.
# label = Yes if pIC50 >= 9 else No

>  <compound>
CCC[C@H](NC(=O)N1CCCc2c1cnn2-c1ccc(F)cc1)c1ccnc(S(C)(=O)=O)c1

>  <group_label>
Yes

$$$$
>  <compound>
CCCC(NC(=O)N1CCCc2c1cnn2-c1ccc(F)cc1)c1ccc(S(C)(=O)=O)nc1 (centres unmarked)

>  <group_label>
No

$$$$

Dear colleague, could you confirm whether `CCC[C@H](NC(=O)N1CCCc2c1cnn2-c1ccc(F)cc1)c1cncc(Br)c1` has pIC50 at or above 9?
Yes
